test: ATG_BRE_CIS: Attagene CIS-FACTORIAL HepG2 Assay for human Bone Morphogenetic Protein (BMP) Response Element (BRE) (AID 2282933); conditions: HepG2 BMP response element reporter, Attagene transcription factor profiling; actives raise or lower the signal
Activity calls are given as the source filed them. The calls were made as follows: active = hit-call score of the fitted dose curve at least 0.9, where 1 is the maximum; inactive = score below 0.9.
// classify into active, inactive

INSERT INTO assay_data (compound, discretelabel) VALUES
  ('Cc1c2ccccc2c(C)c2c1ccc1ccccc12', 'active'),
  ('CCCCCCCCCC(=O)O', 'inactive'),
  ('NC(=O)c1nc(-c2cccc(-c3cc(F)ccc3OCC(F)(F)C(F)(F)F)c2)n[nH]1', 'active'),
  ('Cc1occc1C(=O)Nc1ccc(C(=O)N2CCC(F)(F)/C(=C\C(=O)N3CCC(N4CCCCC4)CC3)c3ccccc32)cc1', 'active'),
  ('CCCCCCCCCCCCO', 'inactive'),
  ('O=C1c2ccccc2C(=O)N1CCc1noc(-c2ccc(CN3CCCCCC3)s2)n1', 'active');

What was the test verdict on CC(O)CC(C)(C)O (configuration not stated) ? inactive

What was the test verdict on O=c1c(-c2ccc(O)cc2)coc2cc(O)cc(O)c12 ? inactive

What was the test verdict on O=C(OCCCCCCOC(=O)c1ccccc1)c1ccccc1 ? inactive
